Values from PubChem BioAssay (Tox21)

- Experimental Protocol: qHTS assay to identify small molecule agonists of the AP-1 signaling pathway - cell viability counter screen (AID 1159525); note: nearly all actives have a fitted effect of over 55% in size
- Experimental Setup: ME-180 (cervical carcinoma) AP-1-bla cells viability, ATP luminescence, 5 h; series mostly up to 76.8 µM
Records with an inconclusive call do not appear. The source made the active and inactive calls. Calls come from the whole dose curve.
Could you please pick one outcome from this set? yes = active, no = inactive

Answered cases to consult:
                                   molecule  class_assignment
0                 CC(O)(P(=O)(O)O)P(=O)(O)O                no
1                                 CCOC(N)=O                no
2  COc1ccc2c(c1)c(CC(=O)O)c(C)n2C(=O)c1ccc(Cl)cc1                no
3  O=S1(=O)OC(c2ccc(O)cc2)(c2ccc(O)cc2)c2ccccc21                no
4                 Cc1ncc([N+](=O)[O-])n1CCO                no
5                      CN1CCC[C@H]1c1cccnc1                no
6                            COc1cccc(O)c1O                no
7                Cn1c(=O)c2c(ncn2C)n(C)c1=O                no
8                CS(=O)(=O)OCCCCOS(C)(=O)=O                no
9                   Cc1ncc([N+](=O)[O-])n1C                no

What is the recorded call for this molecule in the test? `O=C1O[C@H]([C@@H](O)CO)C(O)=C1O`
no

What is the recorded call for this molecule in the test? `CC(C)C(=O)Nc1ccc([N+](=O)[O-])c(C(F)(F)F)c1`
no

What is the recorded call for this molecule in the test? `CCc1nc(N)nc(N)c1-c1ccc(Cl)cc1`
no
